Ref: patent US11608335B2

Target: human somatostatin receptor subtype 5 (Homo sapiens, UniProt P35346)
Sequence (P35346 whole entry): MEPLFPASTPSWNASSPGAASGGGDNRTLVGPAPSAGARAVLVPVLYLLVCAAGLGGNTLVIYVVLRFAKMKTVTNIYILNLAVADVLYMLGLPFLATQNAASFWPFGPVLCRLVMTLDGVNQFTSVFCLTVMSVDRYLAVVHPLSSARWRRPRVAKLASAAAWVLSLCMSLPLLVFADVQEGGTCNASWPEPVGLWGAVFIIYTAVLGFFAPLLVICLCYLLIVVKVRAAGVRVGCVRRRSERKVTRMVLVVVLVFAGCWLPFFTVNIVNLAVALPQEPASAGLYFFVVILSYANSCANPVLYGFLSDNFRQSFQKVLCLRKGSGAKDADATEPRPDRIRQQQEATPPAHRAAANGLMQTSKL
Assay: cAMP assay for SST5R (inhibition of cAMP via human SST5 receptor)
Readout name: EC50

Known EC50 results, listed for orientation:
N#Cc1cc(-c2cncc(-c3nc4cccc(F)c4[nH]3)c2N2CC[C@H](N)C2)ccc1Cl ... < 10 nM
Cc1cc(F)cc(-c2cncc(-c3nc4cccc(C#N)c4[nH]3)c2N2CC(CN)C2)c1 ... 10 to 100 nM
Cc1cccc2nc(-c3cncc(-c4ccnc(C(N)=O)c4)c3N3CCC(C)(N)C3)[nH]c12 (stereo not shown) ... 10 to 100 nM

Next:
q: What does the record list as EC50 for `Cc1ccc(-c2cncc(-c3nc4cc(F)cc(F)c4[nH]3)c2N2CC(CN)C2)cc1` ?
a: 10 to 100 nM
